# Assay Conditions: 303.15 K; 101 kPa; Liquid
Numbers after ± are expanded uncertainties.

Compound	mass density
Clc1cccc(Cl)c1	1277.79 ± 0.82 kg/m3
Clc1ccccc1Cl	1294.72 ± 0.86 kg/m3
CCCCCCC(C)O (centres undefined)	812.58 ± 0.58 kg/m3
Clc1ccc(Cl)c(Cl)c1	1442.43 ± 1.1 kg/m3

====

Measured speed of sound by item
# Assay Conditions: 298.15 K; 101 kPa; Liquid; Pulse-echo method

Compound	speed of sound (m/s)
CCCCCCC(C)O (centres undefined)	1307
Clc1ccc(Cl)c(Cl)c1	1272
Clc1ccccc1Cl	1281.6
Clc1cccc(Cl)c1	1255

====

Measured viscosity by item
# Assay Conditions: 308.15 K; 101 kPa; Liquid; Capillary tube (Ostwald / Ubbelohde) method
Measured Parameter: viscosity (mPa·s)

Compound	Measured Parameter	Unit Abbrev	Test Result
Clc1ccc(Cl)c(Cl)c1 [1,2,4-trichlorobenzene]	viscosity	mPa·s	1.617
Clc1cccc(Cl)c1 [1,3-dichlorobenzene]	viscosity	mPa·s	0.891
Clc1ccccc1Cl [1,2-dichlorobenzene]	viscosity	mPa·s	1.144
CCCCCCC(C)O (centres undefined) [2-octanol]	viscosity	mPa·s	4.162

====

# Experiment Summary: refractive index (Na D-line) (dimensionless)
# Assay Conditions: 308.15 K; 101.33 kPa; Liquid
± gives the expanded uncertainty stated by the source.
Measured refractive index by item

Molecule	refractive index
Clc1cccc(Cl)c1	1.538 ± 0.0012
Clc1ccc(Cl)c(Cl)c1	1.543 ± 0.0012
CCCCCCC(C)O (centres undefined)	1.4185 ± 0.0012
Clc1ccccc1Cl	1.541 ± 0.0012

====

# Assay Conditions: 308.15 K; 101 kPa; Liquid
Measured mass density by item

Compound	mass density [kg/m3]
Clc1cccc(Cl)c1	1272.1
Clc1ccc(Cl)c(Cl)c1	1436.45
Clc1ccccc1Cl	1289.13
CCCCCCC(C)O (centres undefined)	808.74

====

# Experiment Summary: refractive index (Na D-line) (dimensionless)
# Assay Conditions: 303.15 K; 101.33 kPa; Liquid
Measured refractive index by item

Compound	refractive index
Clc1cccc(Cl)c1	1.541
CCCCCCC(C)O (centres undefined)	1.4206
Clc1ccccc1Cl	1.544
Clc1ccc(Cl)c(Cl)c1	1.546

====

# Assay Conditions: 308.15 K; 101 kPa; Liquid; Pulse-echo method
Numbers after ± are expanded uncertainties.
Measured speed of sound by item

Compound	speed of sound
Clc1ccccc1Cl	1245.9 ± 1.3 m/s
Clc1cccc(Cl)c1	1221.9 ± 1.3 m/s
Clc1ccc(Cl)c(Cl)c1	1240.9 ± 1.2 m/s
CCCCCCC(C)O (centres undefined)	1271 ± 1 m/s

====

# Assay Conditions: 298.15 K; 101 kPa; Liquid
± gives the expanded uncertainty stated by the source.
Measured mass density by item
Measured Parameter: mass density

Compound	Test Result
CCCCCCC(C)O (centres undefined)	816.39 ± 0.57 kg/m3
Clc1ccccc1Cl	1300.3 ± 0.87 kg/m3
Clc1cccc(Cl)c1	1283.45 ± 0.84 kg/m3
Clc1ccc(Cl)c(Cl)c1	1448.41 ± 1.1 kg/m3

====

# Assay Conditions: 303.15 K; 101 kPa; Liquid; Pulse-echo method
Measured speed of sound by item

Molecule	speed of sound / m/s
CCCCCCC(C)O (centres undefined)	1289
Clc1cccc(Cl)c1	1238.4
Clc1ccc(Cl)c(Cl)c1	1256.4
Clc1ccccc1Cl	1265.2

====

# Assay Conditions: 298.15 K; 101 kPa; Liquid; Capillary tube (Ostwald / Ubbelohde) method
Numbers after ± are expanded uncertainties.
Measured viscosity by item
Measured Parameter: viscosity

Molecule	Test Result
Clc1ccc(Cl)c(Cl)c1 [1,2,4-trichlorobenzene]	1.926 ± 0.012 mPa·s
Clc1cccc(Cl)c1 [1,3-dichlorobenzene]	1.014 ± 0.009 mPa·s
Clc1ccccc1Cl [1,2-dichlorobenzene]	1.314 ± 0.01 mPa·s
CCCCCCC(C)O (centres undefined) [2-octanol]	6.566 ± 0.072 mPa·s

====

Measured refractive index by item
# Experiment Summary: refractive index (Na D-line) (dimensionless)
# Assay Conditions: 298.15 K; 101.33 kPa; Liquid

Molecule	refractive index
Clc1ccccc1Cl [1,2-dichlorobenzene]	1.546
CCCCCCC(C)O (centres undefined) [2-octanol]	1.4226
Clc1ccc(Cl)c(Cl)c1 [1,2,4-trichlorobenzene]	1.548
Clc1cccc(Cl)c1 [1,3-dichlorobenzene]	1.544

====

Measured viscosity by item
# Assay Conditions: 303.15 K; 101 kPa; Liquid; Capillary tube (Ostwald / Ubbelohde) method
± gives the expanded uncertainty stated by the source.
Measured Parameter: viscosity

Compound	Test Result
Clc1cccc(Cl)c1	0.946 ± 0.008 mPa·s
Clc1ccc(Cl)c(Cl)c1	1.76 ± 0.012 mPa·s
CCCCCCC(C)O (centres undefined)	5.178 ± 0.061 mPa·s
Clc1ccccc1Cl	1.235 ± 0.01 mPa·s
